Kindly supply the reported LD50 at 96 h values for the records listed here.
Assay: Acute oral toxicity on mice (CFLP strain), 96 h observation
Conditions: mouse, in vivo
Answers are plain numbers, in mg/kg.

A selection of reference data follows.
{"Molecule": "CC(COc1ccccc1)N[C@@H](CO)[C@@H](O)c1ccccc1 (single isomer, unassigned; (+)) [Compound 3]", "Scale Unit": "mg/kg", "LD50 at 96 h": 350}
{"Molecule": "CC(COc1ccccc1)N[C@H](CO)[C@H](O)c1ccccc1 (single isomer, unassigned; (-))", "Scale Unit": "mg/kg", "LD50 at 96 h": 275}

For every record below, what is its LD50 at 96 h?
1. CC(COc1ccccc1)N[C@@H](CO)[C@H](O)c1ccccc1 (some centres unmarked)
2. CC(C)N[C@@H](CO)[C@@H](O)c1ccccc1

Result string:
1: 2000; 2: 710

Query string: Field request: LD50 at 96 h | item: CC(COc1ccccc1)N[C@@H](CO)[C@@H](O)c1ccccc1 (relative stereo) [Compound 2]
Result string: 200
